tested on: Jurkat cells; assay type: cell-based; settings: 24 h incubation, 10% FBS/RPMI 1640, 37 °C, 5% CO2; read-out: EC50 (MTT, Jurkat cells)

MOLECULE | EC50 / µM
O=C1CSC(c2ccccc2Cl)c2cc(Cl)ccc2N1 (stereo not shown) | 55

----------
tested on: Jurkat cells; format: cell-based; details: 12 h
pEC50: −log10 of the molar value. Residues, ends and D or L forms follow the SMILES beside them. *: point of attachment. X1 = O=C(COc1ccc(-c2ccccn2)cc1)NCCCCCCCCN*

COMPOUND | ASSAYED_TARGET | pEC50
NCCCC[C@H](NC(=O)[C@H](CCCCN)NC(=O)[C@@H](N)CCCCN)C(=O)NCC(=O)NCC(=O)NCCCCCCCCNC(=O)COc1ccc(-c2ccccn2)cc1 [compound 4] (H-KKKGG-X1) | Jurkat cells | 5.92

----------
test system: Jurkat cells; type: cell-based; conditions: 24 h
Residues, ends and D or L forms follow the SMILES beside them. *: point of attachment. X1 = O=C(COc1ccc(-c2ccccn2)cc1)NCCCCCCCCN*

COMPOUND | EC50 / nM
NCCCC[C@H](NC(=O)[C@H](CCCCN)NC(=O)[C@@H](N)CCCCN)C(=O)NCC(=O)NCC(=O)NCCCCCCCCNC(=O)COc1ccc(-c2ccccn2)cc1 [compound 4] (H-KKKGG-X1) | 1700
